Below, each entry is listed alongside its reported koff.
Molecular target: T1, human CD33 antigen (human, UniProt P20138 18-259, limits assumed)
T1 construct: whole entry named; also called Siglec-3
T1 sequence (P20138 18-259 limits assumed): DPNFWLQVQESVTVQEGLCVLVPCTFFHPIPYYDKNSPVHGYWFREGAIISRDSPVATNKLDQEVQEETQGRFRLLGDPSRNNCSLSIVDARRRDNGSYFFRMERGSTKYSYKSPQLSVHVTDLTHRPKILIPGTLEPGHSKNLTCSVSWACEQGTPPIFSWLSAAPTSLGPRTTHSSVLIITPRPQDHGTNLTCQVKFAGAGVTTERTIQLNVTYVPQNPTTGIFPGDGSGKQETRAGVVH
Test: SPR (Biacore T200), 37 C, scFv-Fc, 0 uM MTX
# value in s⁻¹; strip the unit string

P01_C05 scFv-Fc fusion (scFv, V domains shown, Tested as scFv-Fc fusion) VH: QVQLVESGGGLVQAGGSLRLSCAASRRSSRSWAMHWVRQAPGKGLEWVAVISYDGRLKYYADSVKGRFTISRDNAEYLVYLQMNSLRAEDTAVYYCAAEQWGTNDGPDGGMDYWGQGTLVTVSS VL: DIQMTQSPSSLSASVGDRVTITCRASQTIGSHLNWYQQKPGKAPKLLIYGTSNLQSGVPSRFSGSGSGTDFTLTISSLQPEDFATYYCQQSYSSPLTFGQGTKVEIK | 0.0066

Proceed to the following item.
(Q) Write down koff measured for item P04_C09 scFv-Fc fusion (scFv, V domains shown, Tested as scFv-Fc fusion) VH: QVQLVESGGGLVQAGGSLRLSCAASRRSSRSWAMHWVRQAPGKGLEWVAVISYDGRLKYYADSVKGRFTISRDNAEYLVYLQMNSLRAEDTAVYYCAAEANESDSGGIDVWGQGTLVTVSS VL: DIQMTQSPSSLSASVGDRVTITCRASQTIGGYLNWYQQKPGKAPKLLIYAASSLQSGVPSRFSGSGSGTDFTLTISSLQPEDFATYYCQQGYSSGAFGQGTKVEIK
(A) 0.0018

The measurements presented in this section are drawn from patent US20230192839A1.
